Test system: SW-620 colon
test: NCI-60 one-dose screen, 48 h
measurementConditions: 10 µM unless noted
This is part of a sample that, as a whole, favours compounds with a hit. Of some 83,000 tested, about 20% had one in any assay. The source made the active and inactive calls. The calls were made as follows: active = growth percent below 10; inactive = the rest.
Give your call using only these classes: Y for active, N for inactive

[
  {
    "compound": "CN1CCN(Cc2ccc(NC(=O)c3cncc(C#Cc4cnn5cccnc45)c3)cc2C(F)(F)F)CC1",
    "labelClass": "Y"
  },
  {
    "compound": "COc1ccc(/C(N)=N/C(N)=N/c2nc3ccccc3s2)cc1",
    "labelClass": "N"
  },
  {
    "compound": "CC1=CC(=O)C2=C(C)CC(OC(=O)CCc3ccccc3)[C@@H]3[C@H](OC(=O)[C@@H]3C)[C@@H]12 (stereo not given in full)",
    "labelClass": "N"
  }
]

**Q:** Could you check what this test reported for `O=C(NNc1nc2cc(F)ccc2n2c(CN3CCCC3)ccc12)c1cnccn1` ?
**A:** N

**Q:** Could you check what this test reported for `COc1ccc2c(c1)c(CC(=O)[Se]CC#N)c(C)n2C(=O)c1ccc(Cl)cc1` ?
**A:** Y
